STUDY SYSTEM: T1, mouse programmed cell death protein 1 Fc fusion protein (mPD-1-Fc), mPD-1 C60S (aa 25-167) (Mus musculus, UniProt Q02242, stabilised)
T1 construct: not cleaved; source: Expi293F, purified (Protein A, SEC; dimeric fraction); not shown: Fc (human), C-terminal, kept
PROCEDURE SUMMARY: SPR; Carterra LSA; Fab from the ammonium sulfate precipitate of the culture supernatant immobilised on a NiHC200M chip; hPD-1 (1-1024 nM) or mPD-1-Fc (4-1024 nM) as analyte, fourfold dilution series, no regeneration; HBS-EP pH 7.4, 25 °C; medians over the spots of a construct, KD = koff/kon
STATED CONDITIONS: one partner purified
METRIC: koff (s⁻¹)
Answer format: numeric, s⁻¹ implied, no suffix.

toripalimab Fab L.S25Y (Fab, V domains shown, as the heavy chain of Sm3; light chain of Sm3 with this change; numbers count from the chain's first residue; source: Brevibacillus, culture supernatant (ammonium sulfate precipitate); not shown: 6xHis, C-terminal, kept; 6xHN, C-terminal, kept) VH: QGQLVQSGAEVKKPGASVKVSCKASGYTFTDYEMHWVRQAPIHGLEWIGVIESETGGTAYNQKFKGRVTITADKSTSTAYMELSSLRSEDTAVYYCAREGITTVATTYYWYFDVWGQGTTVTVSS VL: DVVMTQSPLSLPVTLGQPASISCRYSQSIVHSNGNTYLEWYLQKPGQSPQLLIYKVSNRFSGVPDRFSGSGSGTDFTLKISRVEAEDVGVYYCFQGSHVPLTFGQGTKLEIK	0.00412

Give me measured koff, please, for this binder: toripalimab Fab H.G57A (Fab, V domains shown, heavy chain of Sm3 with this change; numbers count from the chain's first residue; as the light chain of Sm3; source: Brevibacillus, culture supernatant (ammonium sulfate precipitate); not shown: 6xHis, C-terminal, kept; 6xHN, C-terminal, kept) VH: QGQLVQSGAEVKKPGASVKVSCKASGYTFTDYEMHWVRQAPIHGLEWIGVIESETGATAYNQKFKGRVTITADKSTSTAYMELSSLRSEDTAVYYCAREGITTVATTYYWYFDVWGQGTTVTVSS VL: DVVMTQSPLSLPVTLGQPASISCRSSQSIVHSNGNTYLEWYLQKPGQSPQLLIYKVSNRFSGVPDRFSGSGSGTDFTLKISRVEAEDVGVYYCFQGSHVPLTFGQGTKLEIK
0.00625
